Molecular target: recombinant hMAO-B (Homo sapiens (Human))
Assay: MAO-B activity assay (MAO-Glo assay kit)
Settings: 4 μM substrate, 30 mins pre-incubation
Endpoint label: IC50

Record excerpt, results attached:
Incoming: # query: IC50 of entry NC/C(=C\F)COc1ccc(S(=O)(=O)CC2(CN3CCOCC3)CC2)cc1 [Compound 116]
Outgoing: > 30 µM

Incoming: # query: IC50 of entry CN(C(=O)C12CCC(CS(=O)(=O)c3ccc(OC/C(=C/F)CN)cc3)(CC1)CC2)C1CC1 [Compound 73]
Outgoing: > 30 µM

Continuing:
Incoming: # query: IC50 of entry CS(=O)(=O)N1CCC(CS(=O)(=O)c2ccc(OC/C(=C/F)CN)cc2)CC1 [Compound 38]
Outgoing: < 10 µM

Incoming: # query: IC50 of entry CC1(CS(=O)(=O)c2ccc(OC/C(=C/F)CN)cc2)CCN(C(=O)C(C)(C)C)CC1 [Compound 54]
Outgoing: > 30 µM

---

Target: recombinant hSSAO (Homo sapiens (Human), UniProt Q16853)
Sequence (Q16853 whole entry): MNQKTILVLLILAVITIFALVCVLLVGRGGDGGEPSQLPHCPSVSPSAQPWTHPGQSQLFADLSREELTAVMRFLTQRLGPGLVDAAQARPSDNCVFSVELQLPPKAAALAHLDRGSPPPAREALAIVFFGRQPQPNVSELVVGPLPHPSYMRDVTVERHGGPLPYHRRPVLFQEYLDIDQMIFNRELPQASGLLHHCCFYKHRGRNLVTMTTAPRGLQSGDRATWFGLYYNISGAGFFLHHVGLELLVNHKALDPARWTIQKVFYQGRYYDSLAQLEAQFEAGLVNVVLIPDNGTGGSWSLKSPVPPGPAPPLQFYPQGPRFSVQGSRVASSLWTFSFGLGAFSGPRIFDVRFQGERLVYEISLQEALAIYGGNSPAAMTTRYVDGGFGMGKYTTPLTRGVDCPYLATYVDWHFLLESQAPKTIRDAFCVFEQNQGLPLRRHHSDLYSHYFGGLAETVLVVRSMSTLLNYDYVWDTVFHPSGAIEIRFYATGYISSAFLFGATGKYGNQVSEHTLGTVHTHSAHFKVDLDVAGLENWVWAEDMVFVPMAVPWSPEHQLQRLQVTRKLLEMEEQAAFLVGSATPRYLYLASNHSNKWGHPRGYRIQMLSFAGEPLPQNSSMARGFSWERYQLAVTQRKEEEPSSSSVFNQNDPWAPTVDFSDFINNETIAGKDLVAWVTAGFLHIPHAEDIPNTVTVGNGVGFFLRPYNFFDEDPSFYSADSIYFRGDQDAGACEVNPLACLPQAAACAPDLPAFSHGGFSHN
Experiment: SSAO Activity Assay (MAO-Glo assay kit)
Format: biochemical
Settings: 40 μM substrate, 30 mins pre-incubation
pIC50: −log10 of the molar value.
Endpoint label: pIC50

Incoming: # query: pIC50 of entry `NC/C(=C\F)COc1ccc(S(=O)(=O)CN2Cc3ccccc3C2=O)cc1`
Outgoing: 7.00 to 7.70

Incoming: # query: pIC50 of entry `CC1(C)CCC(=O)N1CS(=O)(=O)c1ccc(OC/C(=C/F)CN)cc1Cl`
Outgoing: 7.00 to 7.70

Incoming: # query: pIC50 of entry `CC(C)(CN1CCOCC1)CS(=O)(=O)c1ccc(OC/C(=C/F)CN)cc1`
Outgoing: 7.00 to 7.70

Incoming: # query: pIC50 of entry `NC/C(=C\F)COc1ccc(S(=O)(=O)COC2CCN(C(=O)C3CCCC3)CC2)cc1`
Outgoing: 7.00 to 7.70

---

Biological target: recombinant hMAO-B (Homo sapiens (Human), UniProt P27338)
Sequence (P27338 whole entry): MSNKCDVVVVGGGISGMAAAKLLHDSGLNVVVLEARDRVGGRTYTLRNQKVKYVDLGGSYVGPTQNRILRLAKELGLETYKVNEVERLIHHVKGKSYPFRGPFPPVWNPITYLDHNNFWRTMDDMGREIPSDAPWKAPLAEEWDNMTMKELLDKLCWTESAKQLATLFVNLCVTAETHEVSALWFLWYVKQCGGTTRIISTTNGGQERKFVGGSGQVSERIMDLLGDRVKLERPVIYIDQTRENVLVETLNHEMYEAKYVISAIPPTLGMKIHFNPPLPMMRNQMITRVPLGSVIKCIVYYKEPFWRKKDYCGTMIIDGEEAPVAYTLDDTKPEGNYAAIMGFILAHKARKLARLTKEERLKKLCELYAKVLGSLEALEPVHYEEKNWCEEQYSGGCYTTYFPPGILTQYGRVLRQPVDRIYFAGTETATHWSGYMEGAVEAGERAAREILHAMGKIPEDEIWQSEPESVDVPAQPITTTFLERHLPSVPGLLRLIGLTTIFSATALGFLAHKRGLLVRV
Test: MAO-B activity assay (MAO-Glo assay kit)
Details: 4 μM substrate, 30 mins pre-incubation
pIC50: −log10 of the molar value.
Reported pIC50 values for the following molecules.

Incoming: # query: pIC50 of entry `NC/C(=C\F)COc1ccc(S(=O)(=O)CCN2CCCCC2=O)cc1`
Outgoing: > 5.00

Incoming: # query: pIC50 of entry `NC/C(=C\F)COc1ccc(S(=O)(=O)COCC2CCN(C(=O)C3(C(F)(F)F)CC3)CC2)cc1`
Outgoing: 4.52 to 5.00

Shifting focus to the molecule that follows.
Incoming: # query: pIC50 of entry `NC/C(=C\F)COc1ccc(S(=O)(=O)CN2CCOCC2=O)cc1`
Outgoing: < 4.52

---

Target: recombinant hMAO-B (Homo sapiens (Human), UniProt P27338)
Assay: MAO-B activity assay (MAO-Glo assay kit)
Conditions: 4 μM substrate, 30 mins pre-incubation
Reported IC50 values for the following compounds.

Record excerpt, results attached:
Incoming: # query: IC50 of entry `NC/C(=C\F)COc1ccc(S(=O)(=O)CN2CCCCC2=O)cc1`
Outgoing: 10 to 30 µM

Incoming: # query: IC50 of entry `CC(C)(C)C(=O)NC12CC(CS(=O)(=O)c3ccc(OC/C(=C/F)CN)cc3)(C1)C2`
Outgoing: > 30 µM

Continuing:
Incoming: # query: IC50 of entry `CC(C)OCCNC(=O)C12CCC(CS(=O)(=O)c3ccc(OC/C(=C/F)CN)cc3)(CC1)CC2`
Outgoing: > 30 µM

Incoming: # query: IC50 of entry `NC/C(=C\F)COc1ccc(S(=O)(=O)CC2CCN(C(=O)C3(C(F)(F)F)CC3)CC2)cc1`
Outgoing: > 30 µM

Incoming: # query: IC50 of entry `CC(C)C(=O)N(C)CC(C)(C)CS(=O)(=O)c1ccc(OC/C(=C/F)CN)cc1`
Outgoing: 10 to 30 µM
